I'd appreciate it if you could supply melting point values for the items below.

CCOC(=O)CCNC(=S)Nc1ccc2cn[nH]c2c1	145 °C
COCCn1cc(-c2ccc3nnn(Cc4ccc5ncccc5c4)c3n2)cn1	162 to 164 °C
COc1ccc2c(c1)C(=O)C1CCCCN1C2 (configuration not stated)	117 to 119 °C
CS(=O)CC(=O)c1cc(-c2ccccc2)on1 (configuration not stated)	164 to 166 °C
CS(=O)c1ccc(CSc2nnc(-c3ccc4ncsc4c3)o2)cc1C(F)(F)F (configuration not stated)	179 to 180 °C
Cc1[nH]c2ccccc2c1CCCN1CCC(O)(Cc2ccccc2)CC1	132 to 134 °C
NS(=O)(=O)Oc1cccc([N+](=O)[O-])c1	118 to 120 °C
CCCCNc1cc(C=NO)cc(S(N)(=O)=O)c1Oc1ccccc1	226 to 228 °C

Your task in this section: give melting point for each listed record.
1. Nc1c(F)cc(F)c(-n2cc(C(=O)O)c(=O)c3cc(F)c(N4CC[C@H](N)C4)nc32)c1F
2. CC1(C)Oc2ccc(C#N)cc2C(OC(=O)C2CCCN2S(=O)(=O)c2ccc(Cl)cc2)C1Br (configuration not stated)
3. CCOC(=O)C(NC(=O)CO)C(=O)OCC
4. Nc1nc(N)c(-c2cc(Cl)cc(Cl)c2Cl)nc1CO
5. O=c1c(CCCO)c(O)c2cccnc2n1-c1ccccc1
6. CCOC(=O)C1C(=O)Nc2ccccc2C1c1ccccc1 (configuration not stated)
7. O=C1CCCC(=O)N1Nc1ccc([N+](=O)[O-])cc1

## Result
1. 273 to 277 °C
2. 178 to 180 °C
3. 74 to 74.5 °C
4. 185 to 186 °C
5. 218 to 220 °C
6. 178 to 180 °C
7. 197 to 198 °C

Your task in this section: give melting point for each listed record.
1. CC(C)(C)C(Cl)=C(C#N)C#N
2. CCc1ccc2nc(OC)nc(N)c2c1

## Result
1: 52 to 53 °C; 2: 168 to 170 °C

Your task in this section: give melting point for each listed record.
1. O=C(CCCCCC(=O)NCCc1c[nH]c2ccccc12)NO
2. COc1ccc(C2=NN(C3CCN(S(=O)(=O)CCNCC(O)c4ccc(O)c(CO)c4)CC3)C(=O)[C@@H]3CC=CC[C@H]23)cc1OC (some centres not stated)

## Result
1. 140 to 142 °C
2. 97 to 99 °C

Your task in this section: give melting point for each listed record.
1. CN1Cc2cncn2-c2ccccc2C1=O
2. Cc1cc(-c2cc(C(F)(F)F)n3ncc(-c4nc(-c5ccc(S(N)(=O)=O)s5)no4)c3n2)ccc1C(F)(F)F
3. Cc1cccc(C(=O)c2ncccc2C(=O)O)c1

## Result
1: 212 to 213 °C; 2: 324 °C; 3: 184 to 189 °C

====

I'd appreciate it if you could supply melting point values for the items below.

Study these solved cases before continuing.
O=C1C(c2ccc(O)cc2)=C(c2ccccc2)c2cc(O)cc(O)c21	128 to 130 °C
N#Cc1cnn2c1N(C(=O)CN1CCN(C(=O)Nc3cccc(C(F)(F)F)c3)CC1)CC=C2c1cccc(C(F)(F)F)c1	147 to 149 °C
Clc1ccc2[nH]nc(N3CCNCC3)c2c1	60 to 62 °C
O=C(OCC1OC(OC(=O)c2ccccc2)C(O)C1OC(=O)c1ccccc1)c1ccccc1 (stereo not drawn)	137 to 138 °C
COC(=O)c1ccc(-c2nc(-c3ccc(C(F)(F)F)cc3)cs2)cc1	156 to 158 °C

Your task in this section: give melting point for each listed record.
1. CCCCCCCCCc1ccc(Oc2cccc(C#N)c2C#N)cc1
2. CC(C)(C)OC(=O)N1CCN(C(=O)c2ccc3n2Cc2ccccc2N(C(=O)C2=CC=C(c4ccccc4)C(C)(C(F)(F)F)C2)C3)CC1 (stereo not drawn)
3. COc1ccc(-n2[nH]c(Cc3c(C)n(C(=O)c4ccc(Cl)cc4)c4ccc(OC)cc34)cc2=O)cc1

## Result
["74 to 81 °C", "104 to 121 °C", "101 to 103 °C"]

====

I'd appreciate it if you could supply melting point values for the items below.

Study these solved cases before continuing.
N#Cc1ccc(N)c(F)c1F	108 to 110 °C
O=C1N(CCCCN2CCN(c3n[nH]c4cc(F)ccc34)CC2)CSC12CCCCC2	163 to 165 °C
CCCCc1nc2c(N)nc(C)c(C)c2n1CCCCNS(C)(=O)=O	130 °C
CSCCC(S)C(=O)NC1(C(=O)NC(Cc2ccc(-c3ccsc3)nc2)C(=O)O)CCCC1 (stereo not given)	170 to 172 °C

Your task in this section: give melting point for each listed record.
1. O=C(NCCCc1ccncc1)N(CCC12CC3CC(CC(C3)C1)C2)C1CCCC1
2. COc1ccc(S(=O)(=O)N(C(=O)c2snc(Cl)c2Cl)c2ccc(Cl)cc2)cc1
3. O=C(O)CN(Cc1ccccc1)C(=O)CCc1nc2c(F)c(F)cc(F)c2s1

## Result
["136 to 138 °C", "154 to 158 °C", "144 to 146 °C"]

====

I'd appreciate it if you could supply melting point values for the items below.

Study these solved cases before continuing.
CCOC(=O)C(=NNc1ccccc1CC)C(=O)OCC	33 to 34 °C
Cn1cnc2c(N)cc(Br)cc21	170 °C
O=C(Nc1cccc(C2CN3CCSC3=N2)c1)c1ccc(Cl)nc1 (stereo unspecified)	135 to 138 °C
CC1(C)c2c(ccc3cc(C#N)c(Cn4cncn4)cc23)OC1O (stereo unspecified)	219 to 222 °C
Cc1noc(NS(=O)(=O)c2ccccc2-c2ccc(-c3ccon3)cc2)c1C	85 to 90 °C
OC1CSC(Oc2ccccc2-c2ccno2)C(O)C1O (stereo unspecified)	200 °C
O=C(CCc1nnc(-c2ccc3c(c2)CCO3)o1)c1cccs1	151 to 152 °C
Cc1nc(N2CCN(Cc3ccccc3)C2=O)sc1C(=O)NCc1ccccc1F	167 to 168 °C

Your task in this section: give melting point for each listed record.
1. CCCCCCCCCOc1ccc(Cl)c(C(N)=O)c1F
2. CCCc1nc2c(N)nc3ccc(-c4ccc(NC(C)=O)cc4)cc3c2s1
3. CCOC(=O)Cn1nnnc1Cl
4. CC1(C)Oc2ccc(C#N)cc2C(OC(=O)C2CCCN2S(=O)(=O)c2ccc([N+](=O)[O-])cc2)C1Br (stereo unspecified)

## Result
["75 to 77 °C", "251 to 254 °C", "57 to 60 °C", "177 to 180 °C"]

====

I'd appreciate it if you could supply melting point values for the items below.

CCN(CC)C(=O)c1nn(-c2cccc(OC)c2)c(=O)c2c1c1ccc(Cl)cc1n2C	208 °C
CCOC(=O)CN1C(=O)C(=C(C)C)SC1=Nc1cc(-n2c(=O)cc(C(F)(F)F)n(C)c2=O)c(F)cc1Cl	67 to 80 °C
CCC(C)(C)c1ccc(Oc2cc(N)c(O)c([N+](=O)[O-])c2)c(C(C)(C)CC)c1	144 to 148 °C
CC(=O)NC(C=CCP(=O)(O)O)C(=O)O (centres undefined)	155 °C
Cc1ccc(C(=O)Nc2ccc(N3CCOCC3)c(C(F)(F)F)c2)cc1Nc1nccc(-c2cccnc2)n1	216 to 218 °C

Your task in this section: give melting point for each listed record.
1. CCOC(=O)COc1ccc(N(C)Cc2ccc(-c3ccc(C(F)(F)F)cc3)nc2C)cc1CCCOC
2. COc1ccc(OC)c(NC(=O)c2cc(Br)ccc2O)c1
3. Brc1ccc2c(c1)CCC=C2n1ccnc1
4. CCC1(N2C(=O)c3ccccc3C2=O)C(=O)NC(=O)N(C2CCCCC2)C1=O (centres undefined)

## Result
72 to 73 °C
207 to 209 °C
58 to 64 °C
248 to 253 °C

====

test_readout: melting point

Study these solved cases before continuing.
CC(CCCc1ccccc1)c1cc(O)c2c(c1)N1C(=O)CCC1CC2=O (stereo not given)	127 to 130 °C
CN1CC(c2ccc(OCc3ccc(F)cc3)cn2)=C(O)C1=O	210 to 211 °C
Cc1ccc(C(=S)C=CC(=O)Nc2c(C)cccc2C)cc1	216 to 217 °C
COC(=O)CCC(CSc1ccc2ccccc2c1)C(=O)O (stereo not given)	70 to 71 °C
COc1nc2c(OCc3ccccc3)cccc2n1C	98 to 102 °C

Your task in this section: give melting point for each listed record.
1. CCCOC(=O)c1c(C)nc2cc(OC)c(OC)cc2c1-c1ccc(OC)c(OC)c1
2. Cn1ccnc1C(=O)Nc1ccc(-n2nc(C(F)(F)F)cc2C2CC2)cc1

## Result
153 to 155 °C
132 to 134 °C

Your task in this section: give melting point for each listed record.
1. CC(=O)NCC1CN(c2ccc(N3CCN(c4nccs4)CC3)c(F)c2)C(=O)O1 (stereo not given)
2. CCNC(=N)N1CCc2[nH]cnc2C1CC (stereo not given)

## Result
1: 205 to 206 °C; 2: 275 °C

## Task Can you share its melting point? I mean this compound: CCOC(=O)c1cc(C)nc2sc(C(N)=O)c(N)c12
## Result 205 to 208 °C
